# Tested on: B16
# Test details: MTT antiproliferative assay, B16
# Format: cell-based
# Assay setup: 72 h, melanoma B16
Property: IC50 (µM)
# number only, unit µM dropped from output

Compound	Study system	Units	IC50
COc1ccc2oc(N3CCN(CCOc4no[n+]([O-])c4S(=O)(=O)c4ccccc4)CC3)c(C(=O)O)c(=O)c2c1 [15d]	B16	µM	35

# ---- query compound ----
Just so you know, measured IC50 for O=c1[nH]cc(F)c(=O)[nH]1 [5-Fu, fluorouracil, reference compound] came out at 12.6

---

# Tested on: B16
# Test details: MTT antiproliferative assay, B16
# Assay type: cell-based
# Assay setup: 72 h, melanoma B16
Property: pIC50
Convention used: pIC50 is expressed as -log10 of the molar concentration.

Compound	Value observed
COc1ccc2occ(C(=O)N3CCN(CCOc4no[n+]([O-])c4S(=O)(=O)c4ccccc4)CC3)c(=O)c2c1 [15c]	4.63
Cc1ccc2occ(C(=O)N3CCN(CCOc4no[n+]([O-])c4S(=O)(=O)c4ccccc4)CC3)c(=O)c2c1 [14c]	4.98
NCCCOc1no[n+]([O-])c1S(=O)(=O)c1ccccc1 [5b]	4.64

# ---- query compound ----
I looked up NCCOc1no[n+]([O-])c1S(=O)(=O)c1ccccc1 [5a] and its pIC50 for B16 was 4.55

---

# Test system: HCT-116
# Test details: MTT antiproliferative assay, HCT-116
# Assay type: cell-based, human
# Assay setup: Homo sapiens, 72 h, colorectal carcinoma HCT-116
# Description: The colorimetric MTT (3-(4,5-dimethylthiazol-2-yl)-2,5-diphenyltetrazolium bromide) assay was used to measure the cell viability of all of the above cell lines following treatment with target hybrids. Exponentially growing cells were added into 96-well plates at a concentration of 2000–4000 cells per well. […] After that, the absorbance (OD) data of each well at 570 nm wavelength were measured by a Microplate Reader (BIO-RAD), and half inhibition rates (IC50) were calculated[59]^,[60].
Catalogue of IC50 values

# count of solved cases: 2
Compound	Property	Value observed
Cc1ccc2occ(C(=O)O)c(=O)c2c1	IC50	> 50 µM
O=S(=O)(c1ccccc1)c1c(OCCN2CCNCC2)no[n+]1[O-]	IC50	> 50 µM

I looked up CC(CN)Oc1no[n+]([O-])c1S(=O)(=O)c1ccccc1 (centres unmarked) and its IC50 for HCT-116 was > 50 µM

I looked up `COc1ccc2occ(C(=O)O)c(=O)c2c1` and its IC50 for HCT-116 was > 50 µM

I looked up Cc1ccc2occ(C(=O)NCCOc3no[n+]([O-])c3S(=O)(=O)c3ccccc3)c(=O)c2c1 [12a] and its IC50 for HCT-116 was > 50 µM
